# Tested on: HL-60(TB) leukemia
# Protocol Text: NCI-60 one-dose screen, 48 h (100 = growth as untreated, 0 = no growth, -100 = all killed)
# Measurement Conditions: 10 µM unless noted
The panel holds about 83,000 compounds, 20% with a hit somewhere; the sample as a whole holds those more often.
Collected growth values appear next to each entry.
Hi! Could you send only the number? It should be in %, unit omitted.

Please review the following examples before continuing.
Cc1ccc(Cc2cnc(NC(=O)c3ccc4noc(-c5ccccc5)c4c3)s2)cc1 = 97.7
O=C(Nc1ccc(Cl)cc1)c1cc2c(cc1O)[nH]c1ccccc12 = -24.5
O=c1[nH]cnc2c1ccn2C1OC(CO)C(O)C1O (stereo not given) = 34
Cc1ncc(C(=O)Nc2ccc(CN3CCN(C)CC3)c(C(F)(F)F)c2)cc1C#Cc1cnc2cccnn12 = -28.2

Now look at this entry.
For this compound ( CC1(C)CC(=O)c2c(nn(-c3ccc(Br)cc3)c2-c2cn(-c3ccccc3)nc2-c2cccnc2)C1 ), measured growth is 92.1

---

# Test system: MALME-3M melanoma
# Protocol Text: NCI-60 one-dose screen, 48 h (100 = growth as untreated, 0 = no growth, -100 = all killed)
# Measurement Conditions: 10 µM unless noted
The panel holds about 83,000 compounds, 20% with a hit somewhere; the sample as a whole holds those more often.
Tag: met if measured growth is not below 60%, not met if it is.

CC(C)(O)/C=C/C(=O)[C@](C)(O)[C@H]1[C@H](O)C[C@@]2(C)[C@@H]3CC=C4[C@@H](C=C(O)C(=O)C4(C)C)[C@]3(C)C(=O)C[C@]12C = not met

Check if growth >= 60% (inclusive). Item: O=C1NC(=O)C(O)(C2(O)C(=O)NC(=O)NC2=O)C(=O)N1 not met

Check if growth >= 60% (inclusive). Item: CC(=O)O[C@H]1C[C@H](O[C@H]2[C@@H](O)C[C@H](O[C@H]3[C@@H](O)C[C@H](O[C@H]4CC[C@@]5(C)C(CCC6C5C[C@@H](O)[C@]5(C)[C@@H](C7=CC(=O)OC7)CC[C@]65O)C4)O[C@@H]3C)O[C@@H]2C)O[C@H](C)[C@H]1O[C@@H]1O[C@H](CO)[C@@H](O)[C@H](O)[C@H]1O (stereo not given in full) not met

Check if growth >= 60% (inclusive). Item: Nc1ncnc2c1c(C(=O)NO)cn2C1OC(CO)C(O)C1O (stereo not given) not met

Check if growth >= 60% (inclusive). Item: O=C(NCCNC(=O)c1ccc([As](O)O)cc1)c1ccc([As](O)O)cc1 met

Check if growth >= 60% (inclusive). Item: COC(=O)C1CC2c3ccccc3C1c1ccccc12 (stereo not given) met

Check if growth >= 60% (inclusive). Item: COc1cc(C2(C#N)CCN(C)CC2)cc(OC)c1OC met

Check if growth >= 60% (inclusive). Item: CCOC(=O)Nc1cc(Cl)c([N+](=O)[O-])c(NC(=O)OCC)n1 met

Check if growth >= 60% (inclusive). Item: O=CC(Br)C(Br)c1ccccc1 (stereo not given) met

Check if growth >= 60% (inclusive). Item: O=C(CCl)NCNC(=O)CCl met

Check if growth >= 60% (inclusive). Item: COc1cc2c(cc1OC)CN(C)C(C)C2 (stereo not given) met
